assay: Solubility in organic solvents; type: physicochemical; settings: 20 °C, aqueous with cosolvent or surfactant or cyclodextrin, thermodynamic from solid; 75% Dimethyl sulfoxide in water; 20 to 25° C.; at least 12 hours; solid form: monohydrate
readout-kind: solubility (µg/mL)
Just the number in µg/mL, nothing appended.

Consider COCCOc1cnc2ccn([C@H](C)c3nnc4c(F)cc(-c5cnn(C)c5)cn34)c(=O)c2c1 [free base monohydrate form of Compound M] . Its measured solubility is 8450

----------
assay: Equilibrium solubility in water and aqueous media; format: physicochemical; details: water, 22.5 °C, pH 4.09, water, thermodynamic from solid, Sample 2, duration 138 h, isolation method 1, pH 4.09, about 20 to 25° C.
readout-kind: solubility at 138 h (µg/mL)
Give the quantity in µg/mL, number only.

solubility at 138 h reading for COCCOc1cnc2ccn([C@H](C)c3nnc4c(F)cc(-c5cnn(C)c5)cn34)c(=O)c2c1 [free base monohydrate form of Compound M] : 259

----------
test: Equilibrium solubility in water and aqueous media; assay type: physicochemical; details: water, 22.5 °C, pH 4.7, water, thermodynamic from solid; Sample 1; duration 40 h; isolation method 1; pH 4.70; about 20 to 25° C.
readout-kind: solubility at 40 h
Kindly format the answer as number then unit.

Lab note: measured solubility at 40 h of COCCOc1cnc2ccn([C@H](C)c3nnc4c(F)cc(-c5cnn(C)c5)cn34)c(=O)c2c1 [free base monohydrate form of Compound M] was 253 µg/mL

----------
test: Solubility in organic solvents; assay type: physicochemical; conditions: 20 °C, organic solvent or mixture, thermodynamic from solid; Ethanol; 20 to 25° C.; at least 12 hours; solid form: monohydrate
readout-kind: solubility (mg/mL)
Could you give me the number in mg/mL? Just the number is fine.

For reference, reported solubility for COCCOc1cnc2ccn([C@H](C)c3nnc4c(F)cc(-c5cnn(C)c5)cn34)c(=O)c2c1 [free base monohydrate form of Compound M] stands at 29.7

----------
experiment: Solubility in organic solvents; type: physicochemical; settings: 20 °C, organic solvent or mixture, thermodynamic from solid; Toluene; 20 to 25° C.; at least 12 hours; solid form: monohydrate
readout-kind: solubility
Answer shape: numeric part, then the unit.

The recorded solubility for COCCOc1cnc2ccn([C@H](C)c3nnc4c(F)cc(-c5cnn(C)c5)cn34)c(=O)c2c1 [free base monohydrate form of Compound M] is 1900 µg/mL

----------
experiment: Equilibrium solubility in water and aqueous media; format: physicochemical; conditions: FaSIF, 22.5 °C, pH 6.8, fassif, thermodynamic from solid, FaSIF; pH 6.8; 20 to 25° C.; 12-48 hours; read-out: Solubility
readout-kind: solubility (µg/mL)
Could you give me the number in µg/mL? Just the number is fine.

Entry COCCOc1cnc2ccn([C@H](C)c3nnc4c(F)cc(-c5cnn(C)c5)cn34)c(=O)c2c1 [free base monohydrate form of Compound M] ; solubility = 440

----------
test: Equilibrium solubility in water and aqueous media; assay type: physicochemical; details: aqueous medium, pH adjusted with methane sulfonic acid, 22.5 °C, pH 0.8, aqueous buffer, thermodynamic from solid, pH 0.80 (adjusted with methane sulfonic acid); read-out: solubility
readout-kind: solubility
For clarity, give the value followed by its unit.

The value of solubility measured for the compound COCCOc1cnc2ccn([C@H](C)c3nnc4c(F)cc(-c5cnn(C)c5)cn34)c(=O)c2c1 [free base monohydrate form of Compound M] turned out to be 12.4 mg/mL
